target: GSPT1 (Homo sapiens, UniProt P15170+Q96SW2); assay: HiBiT degradation assay, GSPT1, Procedure B (Molt 4_hGSPT1_HiBIT cells); type: cell-based; design: Molt 4_hGSPT1_HiBIT N-terminus tagged cells were generated using CRISPR technology; endogenous in cells; host or cells: Molt 4 cells, CRISPR-edited; conditions: six hours
Sequence (P15170 whole entry): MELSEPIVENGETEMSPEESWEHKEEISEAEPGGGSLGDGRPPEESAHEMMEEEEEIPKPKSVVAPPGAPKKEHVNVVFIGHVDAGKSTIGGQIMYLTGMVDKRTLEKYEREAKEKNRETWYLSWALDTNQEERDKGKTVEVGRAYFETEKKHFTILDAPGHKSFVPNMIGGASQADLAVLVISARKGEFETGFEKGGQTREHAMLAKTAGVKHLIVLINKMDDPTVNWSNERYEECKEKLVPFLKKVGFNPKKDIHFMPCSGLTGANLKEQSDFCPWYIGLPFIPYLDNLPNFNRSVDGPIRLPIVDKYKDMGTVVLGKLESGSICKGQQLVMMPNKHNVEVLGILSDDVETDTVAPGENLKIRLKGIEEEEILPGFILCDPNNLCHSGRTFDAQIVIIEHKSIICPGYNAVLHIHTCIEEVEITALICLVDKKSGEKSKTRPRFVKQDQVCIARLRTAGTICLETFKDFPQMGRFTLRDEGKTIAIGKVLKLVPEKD
Sequence (Q96SW2 whole entry): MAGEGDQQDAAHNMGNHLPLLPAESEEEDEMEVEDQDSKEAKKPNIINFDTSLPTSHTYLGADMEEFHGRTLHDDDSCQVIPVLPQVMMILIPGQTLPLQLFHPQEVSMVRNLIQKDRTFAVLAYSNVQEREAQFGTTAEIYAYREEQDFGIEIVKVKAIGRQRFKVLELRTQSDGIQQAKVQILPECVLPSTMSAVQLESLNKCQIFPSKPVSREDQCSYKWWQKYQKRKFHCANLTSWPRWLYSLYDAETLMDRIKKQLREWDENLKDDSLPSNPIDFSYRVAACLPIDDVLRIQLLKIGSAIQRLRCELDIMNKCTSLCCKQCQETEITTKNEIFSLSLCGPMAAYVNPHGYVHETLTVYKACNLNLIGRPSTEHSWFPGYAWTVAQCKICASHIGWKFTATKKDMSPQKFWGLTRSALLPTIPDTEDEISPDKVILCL
Sequence (Q16531 whole entry partner): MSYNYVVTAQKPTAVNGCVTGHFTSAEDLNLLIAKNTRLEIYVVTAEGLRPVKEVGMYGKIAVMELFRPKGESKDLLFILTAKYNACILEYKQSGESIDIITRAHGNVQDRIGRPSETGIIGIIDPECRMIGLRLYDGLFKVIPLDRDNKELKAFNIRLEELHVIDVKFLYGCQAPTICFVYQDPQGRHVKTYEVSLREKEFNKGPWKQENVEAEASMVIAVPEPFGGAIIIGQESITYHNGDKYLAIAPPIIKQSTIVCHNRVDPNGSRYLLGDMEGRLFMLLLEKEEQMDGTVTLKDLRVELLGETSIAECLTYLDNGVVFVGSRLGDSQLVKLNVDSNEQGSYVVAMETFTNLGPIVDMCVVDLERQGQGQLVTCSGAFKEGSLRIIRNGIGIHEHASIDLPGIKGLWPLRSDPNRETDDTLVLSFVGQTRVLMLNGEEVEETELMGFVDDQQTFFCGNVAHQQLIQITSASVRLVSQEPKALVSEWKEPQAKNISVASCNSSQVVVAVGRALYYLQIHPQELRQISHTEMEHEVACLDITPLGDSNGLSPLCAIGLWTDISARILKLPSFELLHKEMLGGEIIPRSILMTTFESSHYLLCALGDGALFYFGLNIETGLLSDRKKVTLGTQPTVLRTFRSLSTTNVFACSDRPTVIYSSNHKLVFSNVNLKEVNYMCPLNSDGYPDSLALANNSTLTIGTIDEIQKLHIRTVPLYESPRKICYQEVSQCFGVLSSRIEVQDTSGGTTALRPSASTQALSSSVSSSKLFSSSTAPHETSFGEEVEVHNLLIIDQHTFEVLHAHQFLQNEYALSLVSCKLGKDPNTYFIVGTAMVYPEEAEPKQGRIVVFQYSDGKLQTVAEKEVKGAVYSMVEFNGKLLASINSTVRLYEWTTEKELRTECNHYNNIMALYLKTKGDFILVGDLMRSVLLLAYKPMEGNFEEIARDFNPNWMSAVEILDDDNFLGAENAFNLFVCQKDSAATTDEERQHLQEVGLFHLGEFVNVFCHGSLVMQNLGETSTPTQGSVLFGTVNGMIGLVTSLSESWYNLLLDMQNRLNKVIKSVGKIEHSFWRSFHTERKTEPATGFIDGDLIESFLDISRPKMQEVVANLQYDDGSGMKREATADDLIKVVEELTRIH
quantityMeasured: DC50

Consider the worked cases shown below.
Reported DC50 ( Cn1cc(-c2ccc3c(c2)CN(C2CCC(=O)NC2=O)C3=O)nc1-c1cncc2ccccc12 (stereo not drawn) ) = ≥ 25 nM

Reported DC50 ( Cc1cccc(F)c1-c1nc(-c2ccc3c(c2)CN(C2CCC(=O)NC2=O)C3=O)cn1C (stereo not drawn) ) = < 25 nM

Reported DC50 ( Cn1cc(-c2ccc3c(c2)CN(C2CCC(=O)NC2=O)C3=O)nc1-c1ccc(-n2cccn2)cc1 (stereo not drawn) ) = ≥ 25 nM

Reported DC50 ( Cn1cc(-c2ccc3c(c2)CN(C2CCC(=O)NC2=O)C3=O)nc1-c1ccncc1 (stereo not drawn) ) = ≥ 25 nM

Reported DC50 ( Cn1cc(-c2ccc3c(c2)CN(C2CCC(=O)NC2=O)C3=O)nc1[C@H]1[C@@H]2COC[C@@H]21 (stereo partly drawn) ) = ≥ 25 nM

Your task in this section: give DC50 for each listed record.
1. Cn1ncc(-c2ccc3c(c2)CN(C2CCC(=O)NC2=O)C3=O)c1C1=CCC(c2ccccc2)CC1 (stereo not drawn)
2. Cn1cc(-c2ccc3c(c2)CN(C2CCC(=O)NC2=O)C3=O)nc1-c1ccc(Cl)c(C(F)(F)F)c1 (stereo not drawn)
3. Cn1cc(-c2ccc3c(c2)CN(C2CCC(=O)NC2=O)C3=O)nc1-c1ccc2c(c1)CC(=O)N2 (stereo not drawn)
4. C[C@@H]1CCCCN1c1nc(-c2ccc3c(c2)CN(C2CCC(=O)NC2=O)C3=O)nn1C (stereo partly drawn)
5. Cn1cc(-c2ccc3c(c2)CN(C2CCC(=O)NC2=O)C3=O)nc1-c1ccc(O)cc1 (stereo not drawn)
6. Cn1cc(-c2ccc3c(c2)CN(C2CCC(=O)NC2=O)C3=O)nc1-c1ccnc2ccccc12 (stereo not drawn)
7. Cn1cc2cc(-c3nc(-c4ccc5c(c4)CN(C4CCC(=O)NC4=O)C5=O)cn3C)ccc2n1 (stereo not drawn)
8. O=C1CCC(N2Cc3cc(-c4nc(C5CC5)oc4-c4ccccc4)ccc3C2=O)C(=O)N1 (stereo not drawn)

Reply:
["≥ 25 nM", "< 25 nM", "< 25 nM", "≥ 25 nM", "≥ 25 nM", "< 25 nM", "< 25 nM", "≥ 25 nM"]

Your task in this section: give DC50 for each listed record.
1. Cn1cc(-c2ccc3c(c2)CN(C2CCC(=O)NC2=O)C3=O)nc1-c1ccc(C#N)cc1F (stereo not drawn)
2. Cn1ncc(-c2ccc3c(c2)CN(C2CCC(=O)NC2=O)C3=O)c1C1=COCCC1 (stereo not drawn)
3. Cn1cc(-c2ccc3c(c2)CN(C2CCC(=O)NC2=O)C3=O)nc1-c1ccc(CN2CCOCC2)cc1 (stereo not drawn)

Reply:
1. < 25 nM
2. < 25 nM
3. ≥ 25 nM

Your task in this section: give DC50 for each listed record.
1. Cn1ncc(-c2ccc3c(c2)CN(C2CCC(=O)NC2=O)C3=O)c1C1=Cc2ccccc2C1 (stereo not drawn)
2. Cn1cc(-c2ccc3c(c2)CN(C2CCC(=O)NC2=O)C3=O)nc1-c1ccc(N2CCOCC2)cc1 (stereo not drawn)

Reply:
1: < 25 nM; 2: ≥ 25 nM
